- Test system: Purα (PURA)
- measurement.protocol: EMSA
- test.context: unit not stated; 5 mM DTT, 5 mM EDTA, 0.5% Tween 20; densitometry
outcome.measure: Kd (nM)

1. ALS ssDNA (C9ORF72 GGGGCC hexanucleotide repeat)
16

----------
- Tested on: TZIP (synthetic)
- Sequence: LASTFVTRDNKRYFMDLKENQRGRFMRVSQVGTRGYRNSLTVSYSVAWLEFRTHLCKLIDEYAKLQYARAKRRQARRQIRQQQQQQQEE
- measurement.protocol: EMSA
- test.context: printed 5.5×1010, exponent sign lost, unit not stated; 5 mM DTT, 5 mM EDTA, 0.5% Tween 20; densitometry; TZIP alters Purα shift and stimulates …
outcome.measure: Kd (nM)

1) ALS ssDNA (C9ORF72 GGGGCC hexanucleotide repeat)
0.55
